# study-system: Bifunctional protein GlmU (Escherichia coli (strain K12))
# assay-explanation: Inhibition of Escherichia coli GlmU acetyltransferase activity assessed as coenzyme A production using acetyl CoA substrate
Measured IC50 by item

> print(dat)
                            chemical.smiles  endpoint.label     result
1  COc1cc(OC)c(S(=O)(=O)N(c2ccc(C)cc2)c2ccc(C)cc2)cc1NC(=O)CCC(=O)O            IC50      40 nM
2  COc1cc(OC)c(S(=O)(=O)N(c2ccccc2)c2ccc3ccccc3c2)cc1NC(=O)CCC(=O)O            IC50      40 nM
3     COc1cc(OC)c(S(=O)(=O)N(C)C)cc1NC(C)=O            IC50  200000 nM
4  COc1cc(OC)c(S(=O)(=O)N2c3ccccc3Sc3ccccc32)cc1NC(=O)CCC(=O)O            IC50      90 nM

Exercise: Please give the measured IC50 for this compound: COc1cc(OC)c(S(=O)(=O)N2CCCC[C@@H]2C)cc1NC(C)=O
Key: 130000 nM

* * *

Measured inhibition by item
# study-system: Bifunctional protein GlmU (Escherichia coli (strain K12))
# assay-explanation: Inhibition of Escherichia coli GlmU acetyltransferase activity assessed as coenzyme A production using acetyl CoA substrate at 100 uM
Please respond with the number in % and leave the unit unwritten.

The cases that follow already have their inhibition on record.
> print(dat)
                                   compound  result
1  CC(Sc1nnc(O)nc1O)C(=O)OCc1ccccc1 (stereo unspecified)    28.6
2  O=S(=O)(c1ccccc1)c1nc(-c2ccco2)oc1NCCCn1ccnc1    20.7

Exercise: Please give the measured inhibition for this compound: COC(=O)c1cc(S(=O)(=O)Nc2ccc(C)cc2Cl)c[nH]1
Key: 5.22

Exercise: Consider next the compound COc1ccc(OC)c(N(CC(=O)O)S(=O)(=O)c2ccccc2)c1 in the same way.
Key: 42

Exercise: Consider next the compound CCOC(=O)c1c(S(=O)(=O)NCC(=O)Nc2cccnc2)c(C)n(C)c1C in the same way.
Key: 16.2

Exercise: Consider next the compound O=C(NCCN1CCCC1)C1=C2CCCN2c2ccc(F)cc2S1(=O)=O in the same way.
Key: 25.1

Exercise: Consider next the compound CCOC(=O)CC1(c2ccccc2)SC(NC(C)=O)=NN1C(C)=O (stereo unspecified) in the same way.
Key: 9.41

Exercise: Consider next the compound CC(C)C(=O)N1CCCc2cc(NS(=O)(=O)c3cccc(F)c3)ccc21 in the same way.
Key: 82.9

Exercise: Consider next the compound CCOC(=O)c1cc(S(=O)(=O)N2CCCC2C(=O)NC(C)(C)CC)cn1C (stereo unspecified) in the same way.
Key: 30.8

Exercise: Consider next the compound Cc1cc(S(=O)(=O)C(CNC(=O)c2ccco2)c2ccco2)ccc1F (stereo unspecified) in the same way.
Key: 12.6

Exercise: Consider next the compound COc1ccc(C2SCC(=O)Nc3[nH]nc(C)c32)c(OC)c1OC (stereo unspecified) in the same way.
Key: 20.5

* * *

# study-system: Bifunctional protein GlmU (Escherichia coli (strain K12)) (UniProt P0ACC7)
# Sequence (P0ACC7 whole entry, looked up): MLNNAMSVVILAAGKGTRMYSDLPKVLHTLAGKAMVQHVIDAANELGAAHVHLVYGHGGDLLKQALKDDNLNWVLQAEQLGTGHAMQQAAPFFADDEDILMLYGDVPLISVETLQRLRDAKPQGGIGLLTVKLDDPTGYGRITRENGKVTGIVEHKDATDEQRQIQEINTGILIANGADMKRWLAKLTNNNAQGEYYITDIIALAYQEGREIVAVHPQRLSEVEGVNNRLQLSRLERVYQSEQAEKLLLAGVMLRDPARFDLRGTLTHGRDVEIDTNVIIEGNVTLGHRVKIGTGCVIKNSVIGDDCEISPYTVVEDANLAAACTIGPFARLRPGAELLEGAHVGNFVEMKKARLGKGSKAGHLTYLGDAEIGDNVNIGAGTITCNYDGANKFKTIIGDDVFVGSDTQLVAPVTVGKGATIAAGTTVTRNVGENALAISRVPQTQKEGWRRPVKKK
# assay-explanation: Inhibition of Escherichia coli GlmU acetyltransferase activity assessed as coenzyme A production using acetyl CoA substrate at 100 uM
Measured inhibition by item
Form field: result (number plus unit)

> print(dat)
                                   compound                              study.system  endpoint.label  result
1  O=C(CN1c2cccc3cccc(c23)S1(=O)=O)Nc1ccc(F)c(F)c1  Bifunctional protein GlmU (Escherichia coli (strain K12)) (UniProt P0ACC7)      inhibition   28.4%
2  CCn1cc(C(=O)NCc2ccco2)c(S(=O)(=O)N2CCSCC2)n1  Bifunctional protein GlmU (Escherichia coli (strain K12)) (UniProt P0ACC7)      inhibition   22.1%
3  CC(=O)Cc1nsc(NC(=O)C2(C)Cc3ccccc3C(=O)O2)n1 (stereo unspecified)  Bifunctional protein GlmU (Escherichia coli (strain K12)) (UniProt P0ACC7)      inhibition   24.6%
4  Cc1nn(-c2ccccc2)c(O)c1/C=N/NC(=O)C(O)c1ccccc1 (stereo unspecified)  Bifunctional protein GlmU (Escherichia coli (strain K12)) (UniProt P0ACC7)      inhibition   28.1%
5  CCn1c(C)c(-c2nc(C3CC3)no2)c(S(=O)(=O)NCC2CCCO2)c1C (stereo unspecified)  Bifunctional protein GlmU (Escherichia coli (strain K12)) (UniProt P0ACC7)      inhibition   21.1%

Exercise: What is its inhibition for Bifunctional protein GlmU (Escherichia coli (strain K12)) (UniProt P0ACC7)? Entry: CCOc1ccc(OCC)c(NS(=O)(=O)c2ccc3c(c2)N(C)CCO3)c1
Key: 29.2%

Exercise: Consider next the compound Cc1cc(SCC(=O)c2ccc(O)cc2O)ncn1 in the same way.
Key: 20.9%

Exercise: Consider next the compound CCOC(=O)c1cc(S(=O)(=O)N(C)CC(=O)Nc2ccc(F)cc2)cn1C in the same way.
Key: 11.9%

Exercise: Consider next the compound O=S(=O)(c1ccccc1)c1nc(-c2ccsc2)oc1NCC1CCCO1 (stereo unspecified) in the same way.
Key: 13.3%

Exercise: Consider next the compound COc1ccc(-c2cnc(C)o2)cc1S(=O)(=O)Nc1cccc(F)c1 in the same way.
Key: 36%

Exercise: Consider next the compound CCOc1ccc(OCC)c(Nc2c(-c3ccccc3)c(=O)c2=O)c1 in the same way.
Key: 16.8%
